System: SK-MEL-5 CDK2 mRNA, RT-qPCR delta-delta-Ct, overnight
ASSAY TEXT: CDK2 transcript decrease in melanoma cells – cell-based, SK-MEL-5, RT-qPCR, dry powder samples, orthogonal assay for MITF inhibitor project, dose response (AID 651772)
Inconclusive results are not listed.

[
  {
    "LINE NOTATION": "O=C1C=C(NS(=O)(=O)c2ccccc2)C(=O)c2ccccc21",
    "TEST TARGET": "SK-MEL-5 CDK2 mRNA, RT-qPCR delta-delta-Ct, overnight",
    "AC40": "0.138 µM"
  },
  {
    "LINE NOTATION": "O=C(NC1=C(Cl)C(=O)c2ccccc2C1=O)c1ccccc1",
    "TEST TARGET": "SK-MEL-5 CDK2 mRNA, RT-qPCR delta-delta-Ct, overnight",
    "AC40": "0.203 µM"
  },
  {
    "LINE NOTATION": "CCN1CCN(C2=C(NS(=O)(=O)c3ccc(Br)cc3)C(=O)c3ccccc3C2=O)CC1",
    "TEST TARGET": "SK-MEL-5 CDK2 mRNA, RT-qPCR delta-delta-Ct, overnight",
    "AC40": "14.1 µM"
  },
  {
    "LINE NOTATION": "O=C1C(Nc2ccc(F)cc2)=C(N2CCCCC2)C(=O)c2ccccc21",
    "TEST TARGET": "SK-MEL-5 CDK2 mRNA, RT-qPCR delta-delta-Ct, overnight",
    "AC40": "8.22 µM"
  },
  {
    "LINE NOTATION": "COC1=C(NS(=O)(=O)c2cccs2)C(=O)c2ccccc2C1=O",
    "TEST TARGET": "SK-MEL-5 CDK2 mRNA, RT-qPCR delta-delta-Ct, overnight",
    "AC40": "9.34 µM"
  },
  {
    "LINE NOTATION": "O=C1C(NS(=O)(=O)c2cccs2)=C(c2ccccc2)C(=O)c2ccccc21",
    "TEST TARGET": "SK-MEL-5 CDK2 mRNA, RT-qPCR delta-delta-Ct, overnight",
    "AC40": "3.79 µM"
  }
]

Measured values drawn from PubChem BioAssay AID651772 for this set.
